- RUN DESCRIPTION: Apparent permeability of compound across gastrointestinal tract mimic in PBS buffer as membrane retention incubated for 5 hrs by PAMPA assay based HPLC analysis
- Type: ADME, cell membranes
OBSERVABLE: Activity

# annotated cases, reported Activity shown
CC(=O)N1N=C(c2ccc3c(c2)OCO3)CC1c1ccc(-c2ccccc2)cc1 (stereo not given) : 17%
CC(=O)N1N=C(c2ccc(-c3ccccc3)cc2)CC1c1ccc2ccccc2c1 (stereo not given) : 59.7%
COc1ccc(OC)c(C2=NN(C(C)=O)C(c3ccc(-c4ccccc4)cc3)C2)c1 (stereo not given) : 36.2%
CC(=O)N1N=C(c2ccc(-c3ccccc3)cc2)CC1c1ccc(C(=O)O)cc1 (stereo not given) : 15%
COc1ccc(C2=NN(C(C)=O)C(c3ccc(-c4ccccc4)cc3)C2)c(OC)c1 (stereo not given) : 18.4%
CC(=O)N1N=C(c2ccc(-c3ccccc3)cc2)CC1c1ccc2c(c1)OCO2 (stereo not given) : 33.7%
CC(=O)N1N=C(c2cccc3ccccc23)CC1c1ccc(-c2ccccc2)cc1 (stereo not given) : 35.8%
COc1ccc(OC)c(C2CC(c3ccc(-c4ccccc4)cc3)=NN2C(C)=O)c1 (stereo not given) : 38.3%
CC(=O)N1N=C(c2ccc(-c3ccccc3)cc2)CC1c1ccc([N+](=O)[O-])cc1 (stereo not given) : 32.6%

Now, please, on to the next molecule.
Note down Activity recorded for CC(=O)N1N=C(c2ccc(-c3ccccc3)cc2)CC1c1cccc([N+](=O)[O-])c1 (stereo not given)
27.7%

---

Catalogue of molecules with associated Papp at 5 h
- RUN DESCRIPTION: Apparent permeability of compound across gastrointestinal tract mimic in PBS buffer incubated for 5 hrs by PAMPA assay based HPLC analysis
- Type: ADME
State the value with its unit after it.

# annotated cases, reported Papp at 5 h shown
CC(=O)N1N=C(c2ccc(-c3ccccc3)cc2)CC1c1ccccc1[N+](=O)[O-] (stereo not drawn) : 6.9 ×10⁻⁶ cm/s
COc1ccc(C2=NN(C(C)=O)C(c3ccc(-c4ccccc4)cc3)C2)c(OC)c1 (stereo not drawn) : 1 ×10⁻⁶ cm/s
COc1cc(C2=NN(C(C)=O)C(c3ccc(-c4ccccc4)cc3)C2)cc(OC)c1OC (stereo not drawn) : 7.89 ×10⁻⁶ cm/s
CC(=O)N1N=C(c2ccccc2[N+](=O)[O-])CC1c1ccc(-c2ccccc2)cc1 (stereo not drawn) : 1.22 ×10⁻⁶ cm/s
CC(=O)N1N=C(c2ccc3ccccc3c2)CC1c1ccc(-c2ccccc2)cc1 (stereo not drawn) : 4.43 ×10⁻⁶ cm/s
CC(=O)N1N=C(c2ccc(-c3ccccc3)cc2)CC1c1cccc([N+](=O)[O-])c1 (stereo not drawn) : 9.42 ×10⁻⁶ cm/s
CC(=O)N1N=C(c2ccc(-c3ccccc3)cc2)CC1c1ccc([N+](=O)[O-])cc1 (stereo not drawn) : 7.85 ×10⁻⁶ cm/s
CC(=O)N1N=C(c2ccc(-c3ccccc3)cc2)CC1c1ccccc1 (stereo not drawn) : 9.15 ×10⁻⁶ cm/s

Note down Papp at 5 h recorded for CC(=O)N1N=C(c2cccc3ccccc23)CC1c1ccc(-c2ccccc2)cc1 (stereo not drawn)
5.47 ×10⁻⁶ cm/s

Note down Papp at 5 h recorded for CC(=O)N1N=C(c2ccc3c(c2)OCO3)CC1c1ccc(-c2ccccc2)cc1 (stereo not drawn)
8.44 ×10⁻⁶ cm/s

Note down Papp at 5 h recorded for COc1ccc(OC)c(C2CC(c3ccc(-c4ccccc4)cc3)=NN2C(C)=O)c1 (stereo not drawn)
6.94 ×10⁻⁶ cm/s

Note down Papp at 5 h recorded for CC(=O)N1N=C(c2ccc(-c3ccccc3)cc2)CC1c1ccc2ccccc2c1 (stereo not drawn)
3.36 ×10⁻⁶ cm/s

Note down Papp at 5 h recorded for CC(=O)N1N=C(c2ccc(C)cc2)CC1c1ccc(-c2ccccc2)cc1 (stereo not drawn)
4.27 ×10⁻⁶ cm/s
